Can you tell me ratio to parent for the items I'm about to list?
B1: Flag-PLK4 wt (polo-like kinase 4), full-length [human] / DCAF1 (VprBP), endogenous [human (endogenous in HEK293T)] (parent complex)
chain 1: MATCIGEKIEDFKVGNLLGKGSFAGVYRAESIHTGLEVAIKMIDKKAMYKAGMVQRVQNEVKIHCQLKHPSILELYNYFEDSNYVYLVLEMCHNGEMNRYLKNRVKPFSENEARHFMHQIITGMLYLHSHGILHRDLTLSNLLLTRNMNIKIADFGLATQLKMPHEKHYTLCGTPNYISPEIATRSAHGLESDVWSLGCMFYTLLIGRPPFDTDTVKNTLNKVVLADYEMPSFLSIEAKDLIHQLLRRNPADRLSLSSVLDHPFMSRNSSTKSKDLGTVEDSIDSGHATISTAITASSSTSISGSLFDKRRLLIGQPLPNKMTVFPKNKSSTDFSSSGDGNSFYTQWGNQETSNSGRGRVIQDAEERPHSRYLRRAYSSDRSGTSNSQSQAKTYTMERCHSAEMLSVSKRSGGGENEERYSPTDNNANIFNFFKEKTSSSSGSFERPDNNQALSNHLCPGKTPFPFADPTPQTETVQQWFGNLQINAHLRKTTEYDSISPNRDFQGHPDLQKDTSKNAWTDTKVKKNSDASDNAHSVKQQNTMKYMTALHSKPEIIQQECVFGSDPLSEQSKTRGMEPPWGYQNRTLRSITSPLVAHRLKPIRQKTKKAVVSILDSEEVCVELVKEYASQEYVKEVLQISSDGNTITIYYPNGGRGFPLADRPPSPTDNISRYSFDNLPEKYWRKYQYASRFVQLVRSKSPKITYFTRYAKCILMENSPGADFEVWFYDGVKIHKTEDFIQVIEKTGKSYTLKSESEVNSLKEEIKMYMDHANEGHRICLALESIISEEERKTRSAPFFPIIIGRKPGSTSSPKALSPPPSVDSNYPTRERASFNRMVMHSAASPTQAPILNPSMVTNEGLGLTTTASGTDISSNSLKDCLPKSAQLLKSVFVKNVGWATQLTSGAVWVQFNDGSQLVVQAGVSSISYTSPNGQTTRYGENEKLPDYIKQKLQCLSSILLMFSNPTPNFH
chain 2: not shown

Variants of: B1
Test method notes: co-immunoprecipitation (IP against Flag tag, Western blot quantification); HEK293T cells, 48 h overexpression, N = 3; read off a plot

query: // lookup ratio to parent for chain 1 K699A
result: ~0

query: Which value of ratio to parent has been reported for chain 1 K608A in the records?
result: ~0

query: Given chain 1 R691A , state its recorded ratio to parent.
result: ~0.05

query: Looking for the measured ratio to parent of chain 1 I602E , can you help?
result: ~0.01
